- assay.info: plasma pharmacokinetics following different routes of administration
- Format: in vivo, Balb C mice
- assay.setup: female, Balb C, mouse, iv, 10 mg/kg
measured.property: Cmax (ng/mL)
// note: answer is a bare numeric in ng/mL

Recorded result, CCN1CCN(CC(=O)Nc2ccc(-c3cccc4c(=O)cc(N5CCOCC5)oc34)c3sc4ccccc4c23)CC1 [KU-0060648] , Cmax: 1900

====

- assay.info: plasma pharmacokinetics following different routes of administration
- Type: in vivo, Balb C mice
- assay.setup: female, Balb C, mouse, po, 10 mg/kg
measured.property: half-life (h)
// note: answer is a bare numeric in h

Recorded result, CCN1CCN(CC(=O)Nc2ccc(-c3cccc4c(=O)cc(N5CCOCC5)oc34)c3sc4ccccc4c23)CC1 , half-life: 2.37

====

- assay.info: plasma pharmacokinetics following different routes of administration
- Format: in vivo, Balb C mice
- assay.setup: female, Balb C, mouse, ip, 10 mg/kg
measured.property: half-life (h)
// note: answer is a bare numeric in h

Recorded result, CCN1CCN(CC(=O)Nc2ccc(-c3cccc4c(=O)cc(N5CCOCC5)oc34)c3sc4ccccc4c23)CC1 , half-life: 1.77

src = paper PMC3428850
